# key: entry, value: OD450
# tested on: T1, human TIM-3 extracellular domain protein with hFc tag (hTIM-3-hFc) (human, UniProt Q8TDQ0 22-200)
# T1 construct: not shown: human IgG Fc fragment (hFc) of the pCpC vector
# T1 sequence: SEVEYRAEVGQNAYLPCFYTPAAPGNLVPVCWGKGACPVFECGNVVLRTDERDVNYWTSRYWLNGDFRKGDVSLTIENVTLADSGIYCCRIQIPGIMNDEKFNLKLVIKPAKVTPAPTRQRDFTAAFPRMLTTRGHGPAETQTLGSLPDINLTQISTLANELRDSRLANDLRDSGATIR
# procedure summary: ELISA, coated human TIM-3 ECD protein, 0.6667 nM antibody

Please review the entries below; each comes with its answer.
# binder, OD450
rows = [
    ("34B6D8 fully human TIM-3 antibody (human IgG4, kappa) (antibody, V domains shown) VH: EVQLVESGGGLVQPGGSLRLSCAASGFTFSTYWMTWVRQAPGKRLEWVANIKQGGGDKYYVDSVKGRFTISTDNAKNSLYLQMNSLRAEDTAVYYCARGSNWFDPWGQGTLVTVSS VL: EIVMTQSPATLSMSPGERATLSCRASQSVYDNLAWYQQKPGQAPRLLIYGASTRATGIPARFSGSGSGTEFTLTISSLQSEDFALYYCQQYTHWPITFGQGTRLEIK", 3.11),
    ("134H3G6 fully human TIM-3 antibody (human IgG4, kappa) (antibody, V domains shown) VH: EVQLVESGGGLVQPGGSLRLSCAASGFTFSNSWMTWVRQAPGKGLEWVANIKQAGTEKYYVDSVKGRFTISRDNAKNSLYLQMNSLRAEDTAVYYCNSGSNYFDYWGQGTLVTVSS VL: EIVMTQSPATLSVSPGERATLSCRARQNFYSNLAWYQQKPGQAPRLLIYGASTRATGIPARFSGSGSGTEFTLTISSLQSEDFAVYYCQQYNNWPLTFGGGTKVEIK", 2.74),
]

Reported OD450, binder 39E5H1 fully human TIM-3 antibody (human IgG4, kappa) (antibody, V domains shown) VH: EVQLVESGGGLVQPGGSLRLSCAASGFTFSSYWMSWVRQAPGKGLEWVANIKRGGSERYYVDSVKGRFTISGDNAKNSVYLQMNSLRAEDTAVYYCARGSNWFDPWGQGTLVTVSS VL: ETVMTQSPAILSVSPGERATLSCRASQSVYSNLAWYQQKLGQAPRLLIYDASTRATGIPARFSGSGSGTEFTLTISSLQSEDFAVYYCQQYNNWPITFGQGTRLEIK : ____
3.01
